- Study target: WT human STING isoform (Homo sapiens (Human), UniProt Q86WV6, H232R)
- Sequence (Q86WV6 whole entry H232R, canonical isoform): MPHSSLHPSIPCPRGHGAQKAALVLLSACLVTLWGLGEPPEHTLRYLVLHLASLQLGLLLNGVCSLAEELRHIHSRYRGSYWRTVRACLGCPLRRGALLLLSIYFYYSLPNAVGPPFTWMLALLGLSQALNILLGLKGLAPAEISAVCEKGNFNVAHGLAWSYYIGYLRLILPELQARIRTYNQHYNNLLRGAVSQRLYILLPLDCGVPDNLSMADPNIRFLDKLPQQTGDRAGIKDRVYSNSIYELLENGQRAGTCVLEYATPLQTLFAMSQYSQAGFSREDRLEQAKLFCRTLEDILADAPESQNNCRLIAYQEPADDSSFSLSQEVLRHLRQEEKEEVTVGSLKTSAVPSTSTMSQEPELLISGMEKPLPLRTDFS
- Experiment description: THP-1-Dual KI-hSTING-R232 reporter cell line assay
- Measurement context: 24 h incubation, luminescence, normalized to ML RR-S2 CDA 40 μM; read-out: EC50 THP-1 Dual KI-hSTING-R232 cells
Assay endpoint: pEC50
Recall that pEC50 is obtained by taking minus log10 of the concentration measured in molar.

Please review the entries below; each comes with its answer.
NC(=O)c1ccc2c(c1)nc(-c1c(C(=O)O)sc3cccc(C(F)(F)F)c13)n2CCn1c(-c2c(C(=O)O)sc3cccc(C(F)(F)F)c23)nc2cc(C(N)=O)ccc21 (single isomer, unassigned) [Example 19.1]
6.71
NC(=O)c1ccc2c(c1)nc(-c1c(C(=O)O)sc3c(F)ccc(Br)c13)n2CCn1c(-c2c(C(=O)O)sc3c(F)ccc(Br)c23)nc2cc(C(N)=O)ccc21 (single isomer, unassigned) [Example 20.1]
6.20
NC(=O)c1ccc2c(c1)nc(-c1c(C(=O)O)sc3c(F)ccc(Cl)c13)n2CCn1c(-c2c(C(=O)O)sc3c(F)ccc(Cl)c23)nc2cc(C(N)=O)ccc21 (single isomer, unassigned) [Example 2.2]
5.37

// query pEC50 value for entry COc1ccc(F)c2sc(C(=O)O)c(-c3nc4cc(C(N)=O)ccc4n3CCn3c(-c4c(C(=O)O)sc5c(F)ccc(OC)c45)nc4cc(C(N)=O)ccc43)c12 (single isomer, unassigned) [Example 13.1] 5.43

Cited source for all entries: patent US12384801B2
